Answer each item with its documented growth.
Tested on: OVCAR-5 ovarian
Assay: NCI-60 one-dose screen, 48 h (100 = growth as untreated, 0 = no growth, -100 = all killed)
Details: 10 µM unless noted
This is part of a sample that, as a whole, favours compounds with a hit. Of some 83,000 tested, about 20% had one in any assay.
// note: answer is a bare numeric in %

Asked: Item `O=C(c1ccccc1)c1ccc2nc(-c3cccc(Cl)c3)[nH]c2c1` : provide growth
Given back: 107

Asked: Look up and state reported growth for `Cc1ccc(C(=O)CSc2nc3ccc(C)cc3c(=O)n2-c2ccc(F)cc2)cc1`
Given back: 84.8

Asked: Supply recorded growth for `NS(=O)(=O)c1ccc(-n2cc(-c3cccc(NC(=O)c4cc(C(F)(F)F)cc(C(F)(F)F)c4)c3)nn2)cc1` here.
Given back: 70.5

Asked: Note growth for the compound shown: `S=c1c2ccccc2nc2n1CCc1c-2[nH]c2ccccc12`
Given back: 86.8

---

System: U251 CNS
Assay: NCI-60 one-dose screen, 48 h (100 = growth as untreated, 0 = no growth, -100 = all killed)
Settings: 10 µM unless noted
Compounds without any hit were thinned out: in the full panel of roughly 83,000, 20% have a hit. The source made the active and inactive calls. Rule for the calls: active = growth percent below 10; inactive = the rest.
READOUT_TYPE: growth

Asked: Tell us which growth value is on record for `COc1cccc(-c2c(C#N)c(-c3ccc(Cl)cc3)nc3n[nH]c(-c4ccc(Cl)cc4)c23)c1`
Given back: 48.5% (inactive)

Asked: Let me know recorded growth for `CC(C)c1ccc2c(N)c(C(=O)Nc3ccc(C(F)(F)F)cn3)sc2n1` , thanks.
Given back: 62.9% (inactive)

Asked: Read the entry `COc1ccc(/C=C/c2n(Cc3ccc4ccccc4c3)c3ccccc3[n+]2Cc2ccc3ccccc3c2)cc1` and write its reported growth.
Given back: -94.3% (active)

Asked: Name the recorded growth of the item CC12CC[C@@H]3[C@]4(C)COC(c5cn[nH]c5-c5cccc(Br)c5)O[C@@H]4CC[C@@]3(C)[C@@H]1CC(C1=CCOC1=O)O2 (some centres undefined) in your answer.
Given back: 32.1% (inactive)

---

Test system: OVCAR-5 ovarian
Assay: NCI-60 one-dose screen, 48 h (100 = growth as untreated, 0 = no growth, -100 = all killed)
Settings: 10 µM unless noted
The panel holds about 83,000 compounds, 20% with a hit somewhere; the sample as a whole holds those more often.
Group membership follows growth per the scheme bin A: < 20%; bin B: ≥ 20% and < 90%; bin C: ≥ 90%

Asked: State the band of C=C1CC[C@@H]2[C@]3(C)COC(c4cn[nH]c4-c4cccc(Br)c4)O[C@@H]3CC[C@@]2(C)[C@@H]1C/C=C1/C(=O)OCC1O (stereo partly specified)
Given back: bin A

Asked: Could you place `COc1ccc2c(c1)C(=N/N=C(\C)c1ccc(OC)c(S(N)(=O)=O)c1)C(=O)N2` in its proper category? Many thanks.
Given back: bin C

Asked: Class? Entry: CCOC(=O)C(N=Nc1ccc(S(=O)(=O)N=C(N)N)cc1)C(C)=O (stereo unspecified)
Given back: bin C

Asked: State the class of the molecule shown: `CC(C)c1ccc2c(N)c(C(=O)Nc3cccc(C(F)(F)F)c3)sc2n1`
Given back: bin B

Asked: Which band does `N#Cc1c(-c2ccc(Cl)cc2)nc2n[nH]c(-c3ccc(Cl)cc3)c2c1-c1ccc(C(F)(F)F)cc1` fall in?
Given back: bin A

Asked: Which band does `CCCSc1nc(Nc2ccc(S(N)(=O)=O)cc2)c(C#N)c(-c2ccc(Cl)cc2)n1` fall in?
Given back: bin B

Asked: Any idea which band `S=C(NCCc1ccccc1)Nc1ccc(OCc2nc3ccccc3[nH]2)cc1` is in?
Given back: bin C

Asked: Into which category would you place `COc1ccc(-c2nc(SC(C)C)nc(NCCc3c[nH]c4ccccc34)c2C#N)cc1` ?
Given back: bin B

Asked: Which of the defined bands does the recorded growth of `CN1CCN(c2ccc(C(=O)/C=C/c3ccc(Br)cc3)cc2)CC1` sit within?
Given back: bin B

Asked: Consider O=C(C1=CNC(=S)NC1c1ccc(O)cc1)c1cc2ccccc2oc1=O (stereo unspecified) . To which growth class does it belong?
Given back: bin C

Asked: Which class does `CN(C)c1nc(NCCNS(=O)(=O)c2ccc(C(=O)/C=C/c3ccc(C(F)(F)F)cc3)cc2)nc(Nc2ccc(F)cc2)n1` fall in?
Given back: bin A

Asked: Category of COC(=O)/C=C/c1cccc2c1C(=O)NC(C)(c1cc3cc4ccccc4cc3oc1=O)N2 (stereo unspecified) , please.
Given back: bin B

Asked: Class label required: `NS(=O)(=O)c1ccc(-n2cc(-c3cccc(NC(=O)c4ccc(Cl)c(C(F)(F)F)c4)c3)nn2)cc1`
Given back: bin B

Asked: Which category does the recorded growth put `Cc1ccc2c(N)c(C(=O)Nc3ccc(OC(F)(F)F)cc3)sc2n1` in?
Given back: bin B

Asked: Place this molecule in its band: `COc1ccc(-c2nnc3ccc(N/N=C/c4ccc(C)cc4)nn23)cc1`
Given back: bin C

Asked: Band for `Cn1cc(-c2cc(N)n3nc(-c4cn(C)c5ccc(Cl)cc45)cc3n2)c2ccccc21` ?
Given back: bin C

Asked: Exercise: read the entry `COc1cccc(/C=C/C(=O)c2ccc(OC)c(S(N)(=O)=O)c2)c1` and state which class it falls under.
Given back: bin B

Asked: GET /class?item= `Cn1cc(-c2cc3nc(-c4cn(C)c5ncccc45)cc(N)n3n2)c2ccccc21`
Given back: bin B

Asked: Dear colleague, I would appreciate it if you could identify the bin for `O=c1[nH]c2ccccc2cc1CSc1nccc(-c2ccc3ccccc3c2)n1` and reply at your convenience.
Given back: bin C

Asked: Tag the class for `COc1ccc(-c2ccc(SCC(=O)NCCc3ccc(S(N)(=O)=O)cc3)nn2)cc1`
Given back: bin C

Asked: Could you place `COc1ccc(C(=O)/C=C/c2ccccc2Br)cc1S(N)(=O)=O` in its proper category? Many thanks.
Given back: bin A

Asked: Please classify: Cc1ccc(NC(=O)[C@]23CCC(C)(C)CC2C2=CCC4[C@@]5(C)C[C@@H](O)[C@H](O)[C@@](C)(CO)C5CC[C@@]4(C)[C@]2(C)CC3)cc1 (stereo partly specified)
Given back: bin A

Asked: Form field 'band' for `COc1ccc(C(=O)/C=C/c2ccc3ccccc3c2)cc1S(N)(=O)=O`
Given back: bin A

Asked: Sort `CSc1ccc(NC(=O)c2ccc3nnn(/C(C#N)=C/c4ccccn4)c3c2)cc1` into one of the categories.
Given back: bin A

---

Test system: UACC-62 melanoma
Experiment: NCI-60 one-dose screen, 48 h
Conditions: 10 µM unless noted
The panel holds about 83,000 compounds, 20% with a hit somewhere; the sample as a whole holds those more often. Calls of active or inactive are those of the source. How the source made its calls: active means growth percent below 10; inactive means the rest.
Respond with a class label; see label 1 = active, label 0 = inactive

Asked: Hello, I am checking results. What call was entered for C=C1CC[C@@H]2[C@]3(C)COC(c4cn[nH]c4-c4ccc(F)cc4)O[C@@H]3CC[C@@]2(C)[C@@H]1C/C=C1/C(=O)OCC1O (stereo partly drawn) ?
Given back: label 1

Asked: How did this test come out for `O=c1[nH]c2ccccc2cc1CSc1nccc(-c2ccc3ccccc3c2)n1` ?
Given back: label 0

Asked: Per the assay record, what outcome was assigned to C=C1CC[C@@H]2[C@]3(C)COC(c4ccccc4)O[C@@H]3CC[C@@]2(C)[C@@H]1C/C=C1/C(=O)OCC1OC(C)=O (stereo partly drawn) ?
Given back: label 1

Asked: Please share the test call associated with `Cn1cc(-c2nc(N)nnc2-c2c[nH]c3ccc(F)cc23)c2cccnc21` .
Given back: label 0

Asked: How was COc1ccc(C2=NN(c3ccccc3)C(c3ccc(OCc4ccccc4)c(OC)c3)C2)cc1OC (stereo not drawn) classified in this test?
Given back: label 0

Asked: Could you check what this test reported for `COc1ccc2[nH]c(=O)c(CSc3nccc(-c4ccc(OC)c(OC)c4)n3)cc2c1` ?
Given back: label 0

Asked: Any idea what this test logged for CC1=C(C(=O)c2ccccc2)C(c2ccc(-n3cncn3)cc2)n2c(nc3ccccc32)N1 (stereo not drawn) ?
Given back: label 0

Asked: What did the test return for `O=C(Nc1ccc(C(F)(F)F)cc1)Nc1ccc2oc(=O)ccc2c1` ?
Given back: label 0

Asked: Please state the recorded outcome for this compound: `Cc1ncsc1-c1ccc(CNC(=O)[C@@H]2C[C@@H](O)CN2C(=O)[C@@H](NC(=O)C2(F)CC2)C(C)(C)C)c(OCCOCCOCCOCCOc2nc(Nc3cc(S(C)(=O)=O)ccc3N[C@@H](c3cccc4c3OC(F)(F)O4)c3ncccc3Cl)nc(N3CCNCC3)n2)c1`
Given back: label 0

Asked: Any idea what this test logged for `COc1ccc(-c2ccnc(SCc3cc4cc(Cl)ccc4[nH]c3=O)n2)cc1` ?
Given back: label 0

Asked: Each compound tested received a call. Report the one for `O=C(Nc1ccccc1)N1CCN(c2cc(-c3cn(-c4ccccc4)nc3-c3cccc(O)c3)ccn2)CC1` .
Given back: label 0

Asked: Look up the recorded call for `Cn1cc(-c2cc(N)n3nc(-c4cn(C)c5ccccc45)cc3n2)c2cc(Br)ccc21` in this test.
Given back: label 1

Asked: Which result was noted for this compound in the test: `CC(=O)Nc1ccc(-n2cnc3cc(-c4ccc(O)cc4)ccc32)cc1C(F)(F)F`
Given back: label 0

Asked: I would be grateful if you could indicate the recorded call for `COc1cc(-c2ccc(/C=N/NC(=O)c3[nH]c4ccc(Br)cc4c3-c3ccccc3)s2)cc(OC)c1OC` .
Given back: label 0

Asked: Could you please tell me the result logged for C=C1CCC2C3(C)COC(c4ccccc4)OC3CCC2(C)C1CC(NCc1ccccc1)C1=CCOC1=O (stereo not drawn) in this assay?
Given back: label 0

Asked: Record lookup: outcome of this test for `Cn1cc(-c2cc3nc(-c4cn(C)c5ncc(Br)cc45)cc(N)n3n2)c2ccccc21` ?
Given back: label 1

Asked: Could you kindly confirm the outcome this assay logged for `O=C(NN1C(=O)/C(=C/C=C/c2ccc([N+](=O)[O-])o2)SC1=S)c1ccccc1O` ?
Given back: label 1

Asked: Which outcome did this test record for the compound COc1cc2c(c(OC)c1OC)C(=O)CC(c1cccc(NC(=O)c3cc(NC(=O)[C@H](C)N)ccc3Cl)c1)O2 (stereo partly drawn) ?
Given back: label 0

Asked: What outcome does the record of this test show for `CCCSc1nc(Nc2ccc(S(N)(=O)=O)cc2)c(C#N)c(-c2ccc(Cl)cc2)n1` ?
Given back: label 0

Asked: Query: recorded result category for COc1ccc(N2N=C(c3ccc4c(c3)OCO4)CC2c2cccc(NC(=O)CCCNS(=O)(=O)c3ccc(F)cc3)c2)cc1 (stereo not drawn) in this test
Given back: label 0

Asked: Which result was noted for this compound in the test: `O=C(COc1ccc(NC(=O)Nc2ccc(Cl)cc2)cc1)N/N=C/c1ccccc1`
Given back: label 1

Asked: So what was the verdict on `CCCCCCCCc1ccc(S(=O)(=O)Nc2ccc(CC)cc2C(=O)O)cc1` in this test?
Given back: label 0

Asked: Dear all, I need the recorded test outcome for `CSc1ccccc1NC(=O)c1ccc2nn(/C(C#N)=C/c3ccccn3)nc2c1` , thank you.
Given back: label 1

Asked: For `CCCCc1c(Nn2cnnn2)no[n+]1[O-]` , what call appears in the results of this test?
Given back: label 0

Asked: Which outcome did this test record for the compound `COc1ccc(/C=N/NC(=O)Cn2nc(Cc3ccc(OC)cc3)c3onc(C)c3c2=O)cc1` ?
Given back: label 0

Asked: Recorded test call requested for CN(C)c1nc(NCCNS(=O)(=O)c2ccc(C3=Nc4c(N)nc(N)nc4NC(c4ccc(C(F)(F)F)cc4)C3)cc2)nc(Nc2ccc(F)cc2)n1 (stereo not drawn)
Given back: label 1

Asked: How did this test come out for `O=c1c2ccccc2nc(-c2ccccc2)n1/N=C/c1ccc2ccccc2c1` ?
Given back: label 0

Asked: For C=C1CCC2C3(C)COC(c4cc(F)cc(F)c4)OC3CCC2(C)C1CC(O)C1=CCOC1=O (stereo not drawn) , which call appears in the assay record?
Given back: label 0
